test system: HL-60(TB) leukemia; assay: NCI tumour cell line growth inhibition, 48 h
Entry flag: Y if TGI reaches 50 µM; N if it does not.

MOLECULE | GROUP
CCN(CC)CCn1nc(N)c2nc3ccccc3nc21 | Y
COc1cc2ncnc(Nc3cccc(Cl)c3)c2cc1OC | Y
Nc1nc(N(Cc2ccccc2)c2ccccc2)c2cn[nH]c2n1 | N
CC1OC(OC2C(OC(=O)[C@]34CCC(C)(C)CC3C3=CCC5[C@@]6(C)C[C@H](O)[C@H](OC7OC(CO)C(O)C(O)C7N)[C@@](C)(C(=O)O)C6CC[C@@]5(C)C3(C)CC4)OCC(O)C2O)C(O)C(O)C1OC1OCC(O)C(O)C1O (some centres undefined) | Y
CCCCCCCCCCCCN(CC(O)C(O)C(OC1OC(CO)C(O)C(O)C1O)C(O)CO)C(=O)CCCCCCCCCCC (centres undefined) | Y
COc1ccc2c(c1)C(=O)c1c-2n(CCCn2ccnc2)c(=O)c2cc([N+](=O)[O-])ccc12 | N
CCOC(=O)N(NC(=O)NC(C)C)c1ccccc1 | Y
O=C(CC1(O)C(=O)Nc2c(Cl)ccc(Cl)c21)c1ccc(F)cc1 (centres undefined) | Y
